- targetOrTestSystem: human recombinant FGFR3 catalytic structural domain protein (amino acids 399-806) (Homo sapiens (Human), UniProt P22607)
- Sequence (P22607 399-806): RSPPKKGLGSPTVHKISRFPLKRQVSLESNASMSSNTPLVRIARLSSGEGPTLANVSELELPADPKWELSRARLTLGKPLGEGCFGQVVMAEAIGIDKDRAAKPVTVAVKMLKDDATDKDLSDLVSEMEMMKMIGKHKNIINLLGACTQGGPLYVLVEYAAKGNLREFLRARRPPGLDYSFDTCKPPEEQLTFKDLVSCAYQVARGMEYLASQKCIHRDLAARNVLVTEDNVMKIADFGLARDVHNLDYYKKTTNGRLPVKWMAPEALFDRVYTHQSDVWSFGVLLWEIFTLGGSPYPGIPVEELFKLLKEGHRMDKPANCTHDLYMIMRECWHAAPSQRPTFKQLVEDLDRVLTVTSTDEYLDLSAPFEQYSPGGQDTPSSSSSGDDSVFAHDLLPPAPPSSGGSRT
- experiment: FGFR3 activity inhibition test (HTRF kinase assay)
- measurementContext: 90 μM ATP
Please respond with reported IC50 for every item in the list.

What does the data say about its IC50? Entry: CC#CC(=O)N1CC[C@@H](c2nc(C#Cc3cc(OC)cc(OC)c3)c3c(N)nccn23)C1
< 50 nM

What do you get for CC#CC(=O)N1CCC(c2nc(C#Cc3cc(OC)cc(OC)c3)c3c(N)nccn23)C1 (stereo not shown) ?
50 to 500 nM

And COc1cc(C#Cc2nc(C3CCN(C(=O)/C=C/CN(C)C)C3)n3ccnc(N)c23)cc(OC)c1 (stereo not shown) ?
< 50 nM

Query CC#CC(=O)N1CC(c2nc(C#Cc3cc(OC)cc(OC)c3)c3c(N)nccn23)C1 next
50 to 500 nM

Repeat with C/C=C/C(=O)N1CC[C@@H](c2nc(C#Cc3cc(OC)cc(OC)c3)c3c(N)nccn23)C1
< 50 nM

Request: C#CC(=O)N1CC[C@@H](c2nc(C#Cc3cc(OC)cc(OC)c3)c3c(N)nccn23)C1 (stereo in doubt)
50 to 500 nM

What about this molecule? C/C=C/C(=O)N1CC(c2nc(C#Cc3cc(OC)cc(OC)c3)c3c(N)nccn23)C1
50 to 500 nM

---

Assignment: determine reported IC50 for the given molecules.
- targetOrTestSystem: human recombinant FGFR2 catalytic structural domain protein (amino acids 400-821) (Homo sapiens (Human))
- Sequence (P21802 400-821): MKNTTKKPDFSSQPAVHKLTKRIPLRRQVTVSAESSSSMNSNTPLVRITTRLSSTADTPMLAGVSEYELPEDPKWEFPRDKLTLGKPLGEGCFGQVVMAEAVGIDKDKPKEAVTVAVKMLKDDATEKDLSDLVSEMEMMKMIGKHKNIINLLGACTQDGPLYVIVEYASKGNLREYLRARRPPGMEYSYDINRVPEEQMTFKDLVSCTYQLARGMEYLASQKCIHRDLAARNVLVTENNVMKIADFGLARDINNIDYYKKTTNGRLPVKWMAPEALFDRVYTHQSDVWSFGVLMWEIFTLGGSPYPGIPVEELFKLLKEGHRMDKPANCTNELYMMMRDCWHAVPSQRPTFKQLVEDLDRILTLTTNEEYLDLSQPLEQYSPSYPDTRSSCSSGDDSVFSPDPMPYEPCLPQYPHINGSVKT
- experiment: FGFR2 activity inhibition test (HTRF kinase assay)
- measurementContext: 50 μM ATP

Fill in the blank: the reported IC50 of C/C=C/C(=O)N1CC[C@@H](c2nc(C#Cc3cc(OC)cc(OC)c3)c3c(N)nccn23)C1 is ____.
< 50 nM

Can you check C/C=C/C(=O)N1CC(c2nc(C#Cc3cc(OC)cc(OC)c3)c3c(N)nccn23)C1 next?
50 to 500 nM

Param item: CC#CC(=O)N1CC(c2nc(C#Cc3cc(OC)cc(OC)c3)c3c(N)nccn23)C1
50 to 500 nM

---

- targetOrTestSystem: human recombinant FGFR2 catalytic structural domain protein (amino acids 400-821) (Homo sapiens (Human))
- experiment: FGFR2 activity inhibition test (HTRF kinase assay)
- measurementContext: 50 μM ATP
measurementName: IC50

For C#CC(=O)N1CC[C@@H](c2nc(C#Cc3cc(OC)cc(OC)c3)c3c(N)nccn23)C1 (stereo in doubt) , what is its reported IC50?
< 50 nM

For CC#CC(=O)N1CCC(c2nc(C#Cc3cc(OC)cc(OC)c3)c3c(N)nccn23)C1 (stereo not shown) then?
< 50 nM

Now try COc1cc(C#Cc2nc(C3CCN(C(=O)/C=C/CN(C)C)C3)n3ccnc(N)c23)cc(OC)c1 (stereo not shown) .
< 50 nM

Param item: CC#CC(=O)N1CC[C@@H](c2nc(C#Cc3cc(OC)cc(OC)c3)c3c(N)nccn23)C1
< 50 nM
